Tested on: mouse short heterodimer partner-1 mRNA
Assay: Inhibition of mouse short heterodimer partner-1 mRNA levels in primary hepatocytes, quantitative real-time PCR
Format: cell-based
Set-up: concentration or dose not given beside the values
Conditions: averages from two experiments
Strand notation (5' to 3'): a small letter for the sugar, then the base; units joined by * are phosphorothioate-linked, units joined directly phosphodiester-linked; [ ] holds rarer units or linkages, { } end groups; capitals alone tell only the bases. e = 2'-O-(2-methoxyethyl) (MOE); [5mC] = 5-methylcytosine; d = 2'-deoxy (DNA)
test readout: % INHIB (inhibition of mouse short heterodimer partner-1 mRNA levels)

# annotated cases, reported % INHIB (inhibition of mouse short heterodimer partner-1 mRNA levels) shown
1) 148263 (antisense eA*e[5mC]*e[5mC]*eT*eG*d[5mC]*dA*dG*dA*dG*d[5mC]*d[5mC]*d[5mC]*dT*dG*eG*e[5mC]*eA*eT*eG) [compound 148263] :: 0%
2) 148269 (antisense eT*eA*eG*eG*eA*d[5mC]*dA*dT*d[5mC]*d[5mC]*dA*dA*dG*dG*d[5mC]*e[5mC]*eT*e[5mC]*e[5mC]*e[5mC]) [compound 148269] :: 59%
3) ISIS 148287: 2′-MOE gapmer, phosphorothioate, GTTCTGTACAAAGTCAGGAG, targets mouse short heterodimer partner-1 RNA (antisense eG*eT*eT*e[5mC]*eT*dG*dT*dA*d[5mC]*dA*dA*dA*dG*dT*d[5mC]*eA*eG*eG*eA*eG) :: at least 50%
4) ISIS 148286: 2′-MOE gapmer, phosphorothioate, AGTCATCAAGGGCTTGCTGG, targets mouse short heterodimer partner-1 RNA (antisense eA*eG*eT*e[5mC]*eA*dT*d[5mC]*dA*dA*dG*dG*dG*d[5mC]*dT*dT*eG*e[5mC]*eT*eG*eG) :: at least 50%
5) ISIS 148264: 2′-MOE gapmer, phosphorothioate, GCATACAGAATAGTCGGACG, targets mouse short heterodimer partner-1 RNA (antisense eG*e[5mC]*eA*eT*eA*d[5mC]*dA*dG*dA*dA*dT*dA*dG*dT*d[5mC]*eG*eG*eA*e[5mC]*eG) :: at least 50%

For the substance 148275 (antisense eT*eG*eT*eG*eG*d[5mC]*d[5mC]*dG*dG*dT*d[5mC]*dT*dG*dA*dT*eG*eG*e[5mC]*eT*eG) [compound 148275] , the measured % INHIB (inhibition of mouse short heterodimer partner-1 mRNA levels) on mouse short heterodimer partner-1 mRNA was 28%

Item 148284 (antisense eG*eA*eG*eG*e[5mC]*dA*d[5mC]*d[5mC]*dA*dG*dA*d[5mC]*dT*d[5mC]*d[5mC]*eA*eT*eT*e[5mC]*e[5mC]) [compound 148284] ; assay system mouse short heterodimer partner-1 mRNA; % INHIB (inhibition of mouse short heterodimer partner-1 mRNA levels) reported as 77%

The substance 148262 (antisense eT*eG*eA*e[5mC]*eT*dG*dG*d[5mC]*d[5mC]*dG*dG*dA*dG*d[5mC]*dT*e[5mC]*eA*eT*eG*eG) [compound 148262] , when measured on mouse short heterodimer partner-1 mRNA, yielded % INHIB (inhibition of mouse short heterodimer partner-1 mRNA levels) of 50%

Entry 148271 (antisense eA*eA*e[5mC]*e[5mC]*e[5mC]*dA*dA*dG*d[5mC]*dA*dG*dG*dA*dA*dG*eA*eG*eA*eG*eG) [compound 148271] ; assay system mouse short heterodimer partner-1 mRNA; % INHIB (inhibition of mouse short heterodimer partner-1 mRNA levels) recorded at 56%
